# TARGET DESC: GST-hTEAD1(209–426) (human), P28347
# TEST PROTOCOL: SPR; GST-hTEAD1 and mTEAD4 covalently tethered (NHS/EDC) on CM5 chips, 2000–3000 RU; peptides as analytes, threefold dilutions, typically 30 µM top concentration; 10 mM HEPES, 150 mM NaCl, 0.05% Tween-20, pH 7.4, 0.3% DMSO, 20 °C; steady-state fit, 1:1 model

{"BINDER": "KEPEPAPNSVSITG (modifications not checked) [VGL4 intervening extended stretch peptide (peptide 3), Q80V24 203-256]", "Kd": "> 100 µM"}
{"BINDER": "SVDDHFAKALGDTWLQIKAA (modifications not checked) [VGL4 C-terminal two-helix motif peptide (peptide 4, helices α2/α3), Q80V24 203-256]", "Kd": "4.3 µM"}
{"BINDER": "SVDDHFAKALG (modifications not checked) [isolated helix peptide 5 derived from the VGL4 two-helix motif 4, Q80V24 203-256]", "Kd": "> 100 µM"}
{"BINDER": "DTWLQIKAA (modifications not checked) [isolated helix peptide 6 derived from the VGL4 two-helix motif 4, Q80V24 203-256]", "Kd": "> 100 µM"}
{"BINDER": "DPVVEEHFRRSLGKNY (modifications not checked) [VGL4 N-terminal α-helix peptide (peptide 2, helix α1), Q80V24 203-256]", "Kd": "19.4 µM"}
